All figures here come from PubChem BioAssay (NCI).

Test system: MDA-MB-231 breast
experiment: NCI-60 one-dose screen, 48 h
measurementSetup: 10 µM unless noted
Description: Cells are grown in 96 well plates and exposed to the test compound for 48 hours. Compounds are tested at a single concentration, which is 10^-5 M for most compounds. The reported endpoint is percent growth (GI% or GIPRCNT), where numbers from 0 - 100% represent growth inhibition, and numbers from -100% - 0 represent cell death. For example, a value of 40 represents 60% growth inhibition. A value of 0 means no net growth occurred over the course of the experiment. […]
Compounds without any hit were thinned out: in the full panel of roughly 83,000, 20% have a hit. Active and inactive are the calls of the source. How the source made its calls: active means growth percent below 10; inactive means the rest.
Output constraint: value belongs to active, inactive

Hey, what did the test say about `Cc1c(CC(=S)N2CCOCC2)nnn1-c1cccc(C(F)(F)F)c1` ?
inactive

Field: outcome | Entry: `CCCCCCCC/C=C\CCCCCCCCOc1ccc(CC(=O)NCC[N+]2(C)CCOCC2)cc1`
inactive

Entry Nc1nc(N)c2c(n1)NC(c1cccc(Nc3ccnc4cc(C(F)(F)F)ccc34)c1)CC(c1ccccc1)=N2 (centres undefined) : call = ?
inactive

For this molecule, state the assay outcome: `O=C(O)c1cn(C2CC2)c2cc(N3CCN(C(=O)Nc4nc(-c5ccc(Br)cc5)cs4)CC3)c(F)cc2c1=O`
inactive

Call for entry `O=C(NNC(=O)c1nc2cc(F)ccc2n2cccc12)c1cnccn1` :
inactive

Which result was noted for this molecule in the test: `C=C(CNCCc1ccc(O)cc1)[C@@H]1CC[C@]2(CO)CC[C@]3(C)[C@H](CC[C@@H]4[C@@]5(C)CCC(=O)C(C)(C)[C@@H]5CC[C@]43C)[C@@H]12`
active

Can you look up the reported call for `CN(C)CCCNC(=O)c1cncnc1Nc1ccc(OCc2cccc(F)c2)c(Cl)c1` for me?
active

Check the results log: what was the call for N#Cc1ccc(O)c(C2=NCC(Cc3ccccc3)O2)c1 (centres undefined) ?
inactive

Could you check what this test reported for CN(Cc1cnc2nc(N)nc(N)c2n1)c1ccc(C(=O)NC(CCC(=O)O)C(=O)O)cc1Br (centres undefined) ?
inactive

Could you check what this test reported for `COc1cc(OC)cc(-c2ccc(-c3ccc(C(=N)N)o3)o2)c1` ?
active

What was the test verdict on CC1C(/C=N/NC(N)=S)C(C#N)(C#N)C1(C#N)C#N (centres undefined) ?
inactive

Record request — test call for CCN1C(=O)N(CC)C2C1N=C(SCc1ccc(Cl)cc1)N2/N=C/C=C/c1ccccc1OC (centres undefined)
inactive

Can you look up the reported call for `Cc1c2cccnc2c(C)c2c1c1cc(CO)ccc1n2C` for me?
inactive

Hi, do you know how `CCOC(=O)c1cc(C(=O)c2cc(OC)c(OC)c(OC)c2)n2ccccc12` came out in this test?
inactive

Record lookup: outcome of this test for `COc1ccccc1N(C(C)=O)C1=C(Cl)C(=O)c2ccccc2C1=O` ?
inactive

// param item: `O=C1/C=C/[C@@H](O)[C@@H]2C[C@@H](O)C[C@H]2/C=C/CCC[C@H](CCO)O1` ; yields the recorded call
active

What did this assay record as the result for `CCN(CC)CCN1C(=O)c2c(c(C)c3c(oc4ccc(OC)cc43)c2C)C1=O` ?
inactive

Call for entry `[2H]C([2H])([2H])Oc1ccc(F)cc1/C=C/C(=O)/C=C(/C=C/c1cc(F)ccc1OC([2H])([2H])[2H])OB(F)F` :
inactive

Kindly provide the recorded test outcome for the following molecule: `CN(C)c1ccc(/C=C(\C#N)c2cc3ccccc3[nH]2)cc1`
inactive

###

System: OVCAR-3 ovarian
experiment: NCI-60 one-dose screen, 48 h (100 = growth as untreated, 0 = no growth, -100 = all killed)
measurementSetup: 10 µM unless noted
About 83,000 compounds went through this panel and 20% of them were active in at least one assay; those are over-represented in the sample as a whole.
Kindly apply the following: True if growth is less than 70%, False in every other case.

Dear colleague, could you confirm whether growth of `Cc1n[nH]c2ccc(Br)cc2c1=O` falls below 70%? Thanks.
False

Is growth strictly under 70% for the entry `C=C1C(=O)O[C@H]2[C@H]1CC/C(COC(=O)CSCSCC(=O)OC/C1=C/CC[C@@]3(C)O[C@H]3[C@H]3OC(=O)C(=C)[C@@H]3CC1)=C\CC[C@@]1(C)O[C@@H]21` ?
True

Is growth strictly under 70% for the entry CCN1C(=O)N(CC)C2C1NC(=S)N2/N=C/c1ccc(OC)cc1 (centres undefined) ?
True

Strictly below 70%: is that where growth of COc1ccc(C2CC(c3cc(OC)c(OC)c(OC)c3)=NO2)cc1OCCCCOc1cc2c(cc1OC)C(=O)N1CCC[C@H]1C=N2 (some centres undefined) sits?
True

Lab log: compare recorded growth with 70%; is it strictly lower for `Cc1ccc(-c2nc3nc(-c4ccccc4)nc(N4CCCN(S(C)(=O)=O)CC4)c3o2)cc1` ?
False

hey, is growth for `CN(Cc1cc(Br)cc(Br)c1O)Cc1cc(Br)cc(Br)c1O` lower than 70% or not?
True

Please check: growth for `CC(C)(C)n1cc(-c2ccnc(NCCCNS(=O)(=O)c3cccc4ccccc34)c2)c(-c2cccc(F)c2)n1` , strictly under 70% or not?
False

hey, is growth for `Cc1ccnc(Nc2ccc([N+](=O)[O-])c(NCCN3CCOCC3)n2)c1` lower than 70% or not?
True

###

Test system: SK-OV-3 ovarian
experiment: NCI-60 one-dose screen, 48 h
measurementSetup: 10 µM unless noted
The panel holds about 83,000 compounds, 20% with a hit somewhere; the sample as a whole holds those more often. Activity calls are given as the source filed them. How the source made its calls: active means growth percent below 10; inactive means the rest.
// classify into active, inactive

Which outcome was entered for the molecule O=C(C1CCCCC1)[C@@H]1[C@]2(C(=O)NC3CCCCC32)[C@@H]2CCCN2[C@@]12C(=O)NC1CCC(Cl)CC12 (stereo partly drawn) in this test?
active

Please let me know the test result on file for `Cc1nc2c(=O)nc3s/c(=C\c4ccco4)c(=O)n3c2nc1C` .
inactive

Hello, I am checking results. What call was entered for `C#CCn1cnc2cnc(Nc3cccc(NC(=O)C=C)c3)nc21` ?
inactive

Which outcome did this test record for the molecule `CSc1nn2c(-c3ccc4ccccc4c3)ccnc2c1C#N` ?
inactive

Could you kindly confirm the outcome this assay logged for `COc1ccc(CNc2c3ccccc3nc3ccccc23)c(OC)c1` ?
inactive

Dear all, I need the recorded test outcome for `COc1ccc(/C=C/C(=O)c2ccc(NC(=O)CSc3nc4c([nH]3)c(=O)n(C)c(=O)n4C)cc2)cc1OC` , thank you.
inactive

What is the recorded call for this molecule in the test? `CO[C@H]1CC(=O)n2c3ccccc3c3c4c(c5c6ccccc6n1c5c32)C(=O)NC4=O`
inactive

Dear colleague, could you share the recorded outcome for N#Cc1ccc(O)c(C2=NCC(Cc3ccccc3)O2)c1 (stereo not drawn) when you have a moment?
inactive

Just curious, what result did `Cc1ccc(-c2nc(N3CCNCC3)c3oc(-c4ccc(C)cc4)nc3n2)cc1` get here?
inactive

Check the results log: what was the call for `CC(=O)OC[C@]12CC[C@@H]([C@@H](C)c3nnc(-c4ccncc4)o3)[C@@H]1[C@H]1CC[C@@H]3[C@@]4(C)CC[C@H](OC(C)=O)C(C)(C)[C@@H]4CC[C@@]3(C)[C@]1(C)CC2` ?
inactive

Tell me the recorded outcome of this test for `CCc1ccc(CCC(=O)Nc2ncc(Cc3ccccc3)s2)o1` .
inactive

Per the assay record, what outcome was assigned to `O=C(/C=C/c1ccc(Oc2ccc(Br)cc2)cc1)c1ccc(Br)cc1` ?
inactive

Status in this test for `C=C(C)[C@@H]1CC[C@]2(COC(C)=O)CC[C@]3(C)[C@H](CC[C@@H]4[C@@]5(C)CCCN(C(C)=O)C(C)(C)[C@@H]5CC[C@]43C)[C@@H]12` ?
inactive

Look up the recorded call for `O=C(Cc1ccc(/C=C/C(=O)c2ncc[nH]2)cc1)Nc1cc(C(F)(F)F)cc(C(F)(F)F)c1` in this test.
inactive

What was the test verdict on `COc1ccc(/C=C/c2c(C(=O)/C=C/c3ccccc3)c(C)nc3ccccc23)cc1` ?
inactive

Name the outcome recorded for `NC1=Nc2cc(OCCCCN3Cc4ccccc4C3)c(OCC3CC3)cc2C12CCCC2` in the assay.
inactive

How did this test come out for `CC(=C(c1ccc(OCCN2CCCCC2)cc1)c1ccc(OCCN2CCCCC2)cc1)c1ccc(Cl)cc1` ?
active

Hey, what did the test say about `Cc1ccc(/C=C/C(=O)c2ccc(-n3cc(CN4CCN(c5cc6c(cc5F)c(=O)c(C(=O)O)cn6C5CC5)CC4)nn3)cc2)cc1` ?
inactive
